- test_details: NCI Yeast Anticancer Drug Screen. Data for the mec2-1 strain (AID 157)
- run_conditions: S. cerevisiae mec2-1 strain, at 33.0 µM, stronger effect = higher value
About 79,000 compounds went through this panel and 15% of them were active in at least one assay; those are over-represented in the sample as a whole.
attribute_measured: growth inhibition (%)

[
  {
    "compound": "CC(C)(C)N=C(NO)c1ccccc1",
    "display_unit": "%",
    "reported_measurement": 12
  },
  {
    "compound": "CC[N+]1(C)CCC(O)(c2ccc(OC)cc2)C(C(=O)c2ccc(OC)cc2)C1 (stereo not drawn)",
    "display_unit": "%",
    "reported_measurement": -61
  },
  {
    "compound": "O=C(/C=C(/c1ccccc1)N1CCCCC1)c1ccccc1",
    "display_unit": "%",
    "reported_measurement": 7
  },
  {
    "compound": "CCCC/C=C/C(C)(C(=O)OCC)C(=O)OCC",
    "display_unit": "%",
    "reported_measurement": 5
  },
  {
    "compound": "CCC(=O)c1cc(C(=O)C(=S)SC)cc(C(=O)C(=S)SC)c1",
    "display_unit": "%",
    "reported_measurement": 98
  },
  {
    "compound": "NC1CCCCC1N.Nc1c(N=Nc2ccc(-c3ccc(N=Nc4cc(S(=O)(=O)[O-])c5ccccc5c4N)cc3)cc2)cc(S(=O)(=O)[O-])c2ccccc12.[OH3+].[OH3+].[Pt+4]",
    "display_unit": "%",
    "reported_measurement": 92
  },
  {
    "compound": "CC(O)=NC(Cc1ccc2ccccc2c1)C(O)=NC(Cc1ccc(Cl)cc1)C(O)=NC(Cc1c[nH]c2ccccc12)C(O)=NC(CO)C(O)=NC(Cc1ccc(O)cc1)C(O)=NC(CCCN=C(N)N)C(O)=NC(CC(C)C)C(O)=NC(CCCN=C(N)N)C(=O)N1CCCC1C(O)=NC(C)C(=N)O (stereo not drawn)",
    "display_unit": "%",
    "reported_measurement": -2
  },
  {
    "compound": "COc1ccc([N+](=O)[O-])c2c(NCCCN(C)C)c3ccccc3nc12",
    "display_unit": "%",
    "reported_measurement": 47
  }
]

Where these numbers come from: PubChem BioAssay (NCI)
